tested.on: Insulin-like growth factor 1 receptor (Homo sapiens, UniProt P08069)
Sequence (P08069 31-736 limits assumed): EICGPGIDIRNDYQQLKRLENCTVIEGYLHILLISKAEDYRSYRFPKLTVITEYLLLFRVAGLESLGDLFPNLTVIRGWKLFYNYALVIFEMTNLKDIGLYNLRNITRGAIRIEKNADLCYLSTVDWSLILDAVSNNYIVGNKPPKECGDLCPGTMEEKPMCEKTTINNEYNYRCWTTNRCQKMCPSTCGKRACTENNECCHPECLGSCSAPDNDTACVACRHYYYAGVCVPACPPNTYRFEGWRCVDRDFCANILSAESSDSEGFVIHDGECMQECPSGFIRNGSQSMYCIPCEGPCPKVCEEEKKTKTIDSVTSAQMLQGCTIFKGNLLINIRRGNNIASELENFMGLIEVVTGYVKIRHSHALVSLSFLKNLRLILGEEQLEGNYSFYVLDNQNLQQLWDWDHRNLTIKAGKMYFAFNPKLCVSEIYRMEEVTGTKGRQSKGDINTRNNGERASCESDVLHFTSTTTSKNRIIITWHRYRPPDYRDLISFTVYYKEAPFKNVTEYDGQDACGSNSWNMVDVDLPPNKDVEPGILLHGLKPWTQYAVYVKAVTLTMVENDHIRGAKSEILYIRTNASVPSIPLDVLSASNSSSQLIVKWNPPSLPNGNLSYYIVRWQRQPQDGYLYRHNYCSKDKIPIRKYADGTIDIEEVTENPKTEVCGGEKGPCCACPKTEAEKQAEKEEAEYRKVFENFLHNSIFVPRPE
Sequence (P08069 741-1367 limits assumed): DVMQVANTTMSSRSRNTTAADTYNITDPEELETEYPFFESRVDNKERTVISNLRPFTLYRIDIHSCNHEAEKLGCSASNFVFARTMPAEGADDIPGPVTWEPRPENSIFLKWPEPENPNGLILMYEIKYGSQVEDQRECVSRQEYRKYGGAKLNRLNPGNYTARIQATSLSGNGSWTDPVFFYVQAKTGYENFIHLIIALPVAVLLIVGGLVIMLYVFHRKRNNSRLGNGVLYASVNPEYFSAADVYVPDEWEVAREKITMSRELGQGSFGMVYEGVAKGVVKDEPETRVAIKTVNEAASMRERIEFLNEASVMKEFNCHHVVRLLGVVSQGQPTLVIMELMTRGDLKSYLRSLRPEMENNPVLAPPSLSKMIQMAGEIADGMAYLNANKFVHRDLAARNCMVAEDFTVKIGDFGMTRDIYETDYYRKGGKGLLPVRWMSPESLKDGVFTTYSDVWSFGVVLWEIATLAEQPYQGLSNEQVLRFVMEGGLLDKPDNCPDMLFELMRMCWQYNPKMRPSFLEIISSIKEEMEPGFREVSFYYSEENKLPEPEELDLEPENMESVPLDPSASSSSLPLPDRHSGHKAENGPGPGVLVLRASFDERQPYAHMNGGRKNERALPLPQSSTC
experiment.summary: Inhibition of human recombinant IGF1R (959 to end residues) using KKKSPGEYVNIEF as substrate after 40 mins by [gamma-33ATP] by radiometric scintillation counting analysis
parameter.measured: IC50

{"columns": ["smiles.string", "reading"],
 "data": [
  ["CN(C)c1ccc(C(=O)Nc2cccc(NC(=O)COc3ccc4c(=O)ccoc4c3)c2)cc1", "> 10 µM"]
]}

---

experiment.summary: Half life in rat liver microsomes measured upto 45 mins in presence of NADPH by LC-MS analysis
Format: ADME, Microsome

{"columns": ["smiles.string", "half-life, min"],
 "data": [
  ["CN(C)c1ccc(C(=O)Nc2cccc(NC(=O)COc3ccc4c(=O)ccoc4c3)c2)cc1", 1.1]
]}
